system: p53DsRed reporter in PG3/9 melanoma cells (A375 clone); assay: p53DsRed reporter activation assay (in vitro p53 activity assay); type: cell-based; conditions: Homo sapiens, A-375; PG3/9 melanoma cells, 24 hours; read-out: effective concentration (EC50), p53DsRed reporter activation
MEASUREMENT KIND: pEC50
Just the number, please; pEC50 means minus log10 of the concentration in mol/L.

QUERY: Find the recorded pEC50 belonging to CN(C)CCCNc1nn2c(=O)c3ccccc3nc2c2ccccc12 [Compound 7] and report it.
RESULT: 5.18

QUERY: Find the recorded pEC50 belonging to Cc1cc(C)c2c(N)c3cccc(C)c3nc2n1 [Compound 23] and report it.
RESULT: 5.68

QUERY: Find the recorded pEC50 belonging to Cc1cc(C)c2nc3nc(C)cc(C)c3c(N)c2c1 [Compound 22] and report it.
RESULT: 5.59
